Test system: L1210
measurement-description: Inhibitory concentration against the growth of L1210 murine leukemia cells in tissue culture.
reported-conditions: Mus musculus
measured-quantity: pIC50
Answers are plain numbers, as −log10 of the molar value.

The reported value for CN(Cc1cnc2nc(N)nc(N)c2n1)c1ccc(C(=O)N[C@@H](CCC(=O)O)C(=O)O)cc1 [METHOTREXATE] in terms of pIC50 is 8.00

====

Species on record: Mus musculus
measurement-description: Inhibitory concentration against the growth of L1210 murine leukemia cells in tissue culture.
Type: functional, cell-based
Exercise: state measured IC50 for each of the compounds provided.

> print(dat)
                                   compound  measured
1  Nc1nc(O)c2c(n1)NCC(CCc1ccc(C(=O)NC(CCC(=O)O)C(=O)O)cc1)C2 (configuration not stated)     59 nM

As a next step, examine the compound that follows.
The reported value for Nc1nc(O)c2cc(CCc3ccc(C(=O)N[C@@H](CCC(=O)O)C(=O)O)cc3)cnc2n1 in terms of IC50 is > 100000 nM
